TARGET DESC: human recombinant PKM2 (Homo sapiens)
Construct: purchased Sigma SAE0021
Sequence (P14618 whole entry): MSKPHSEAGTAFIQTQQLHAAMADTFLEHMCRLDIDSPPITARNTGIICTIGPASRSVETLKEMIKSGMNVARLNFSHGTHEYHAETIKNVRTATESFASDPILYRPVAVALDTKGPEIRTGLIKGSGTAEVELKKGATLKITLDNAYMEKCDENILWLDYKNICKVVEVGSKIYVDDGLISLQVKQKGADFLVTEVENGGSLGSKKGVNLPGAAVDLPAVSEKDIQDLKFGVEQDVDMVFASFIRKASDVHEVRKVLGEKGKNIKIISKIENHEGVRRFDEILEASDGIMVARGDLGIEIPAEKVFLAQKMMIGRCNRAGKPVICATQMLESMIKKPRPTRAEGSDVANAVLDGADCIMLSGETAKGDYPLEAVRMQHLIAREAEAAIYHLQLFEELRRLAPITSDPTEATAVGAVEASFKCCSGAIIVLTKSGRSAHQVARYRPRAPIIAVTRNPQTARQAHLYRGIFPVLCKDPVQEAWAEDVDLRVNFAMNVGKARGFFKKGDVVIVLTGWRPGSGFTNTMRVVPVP
ASSAY NAME: Pyruvate kinase enzyme-coupled (LDH/NADH) assay with recombinant PKM2
Format: biochemical
EXPERIMENTAL CONDITIONS: recombinant human PKM2, n = 3, normalized to DMSO-treated enzyme; read-out: Recombinant PKM2 Max Activation
Quick rule: Emax of at least 300% means Met, below that means Not met.

Cc1cccc(Cn2ncc3c4cc(F)c(CN5CCCC5)cc4n(C)c3c2=O)n1; Not met
Cc1cccc(Cn2ncc3c4cc(F)c(CN5CCOCC5)cc4n(C)c3c2=O)n1; Not met
Cc1cccc(Cn2ncc3c4cc(F)c(CNCCO)cc4n(C)c3c2=O)n1; Not met
CSc1ccc2c3cnn(Cc4cccc(N)c4)c(=O)c3n(C)c2c1; Not met
Cn1c2cc(CN3CCNCC3)c(F)cc2c2cnn(Cc3ccccc3F)c(=O)c21; Met
Cc1cccc(Cn2ncc3c4cc(F)c(CN(C)C)cc4n(C)c3c2=O)n1; Not met
